- tested on: Nuclear receptor ROR-gamma (Mus musculus) (UniProt P51450)
- Sequence (P51450 whole entry, looked up): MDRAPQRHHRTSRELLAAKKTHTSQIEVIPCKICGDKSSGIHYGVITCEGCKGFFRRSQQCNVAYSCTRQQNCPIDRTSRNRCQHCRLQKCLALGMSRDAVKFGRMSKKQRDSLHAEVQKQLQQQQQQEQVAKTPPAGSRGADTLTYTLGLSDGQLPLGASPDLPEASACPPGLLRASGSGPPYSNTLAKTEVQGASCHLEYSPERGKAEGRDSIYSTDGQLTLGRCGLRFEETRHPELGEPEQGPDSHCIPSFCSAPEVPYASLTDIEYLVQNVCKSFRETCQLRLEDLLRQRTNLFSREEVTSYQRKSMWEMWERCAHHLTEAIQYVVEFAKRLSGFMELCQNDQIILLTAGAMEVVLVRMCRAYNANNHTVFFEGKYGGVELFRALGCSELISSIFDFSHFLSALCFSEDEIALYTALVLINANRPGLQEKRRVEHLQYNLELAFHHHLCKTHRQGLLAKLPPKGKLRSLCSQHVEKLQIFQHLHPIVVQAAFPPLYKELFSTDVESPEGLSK
- measurement protocol: qHTS for inhibitors of ROR gamma transcriptional activity; further: nearly all actives have a fitted effect of over 60% in size
- test conditions: Drosophila S2 Gal4-RORgamma UAS-luciferase reporter, 20 h; series mostly up to 53.6 µM
Among all 310,000 compounds or so, about 17,000 (5.5%) were called active. Another 11% or so got no clear call; they are omitted. The call rests on the fitted dose curve; in most records, active means well fitted inhibition curve with a large enough effect; inconclusive means small, poorly fitted or top-dose-only effect, or effect the other way; inactive means no such curve, though single readings can be large or run the other way. The list comes from a sample in which actives are over-represented; it also holds close analogues and randomly drawn compounds.
Just give me one of these, please: active, inactive

Check the results log: what was the call for CC1CC(C)CN(C(=O)CCNC(=O)Cn2cnc3ccccc3c2=O)C1 (stereo not given) ?
inactive

Check the results log: what was the call for CC(C)C(NC(=O)c1ccc(Cl)cc1)C(=O)O (stereo not given) ?
inactive

Check the results log: what was the call for Clc1ccc2nc(CSc3ccccc3)cn2c1 ?
active

Check the results log: what was the call for c1cnc(N2CCN(c3ccc4ccccc4n3)CC2)nc1 ?
inactive

Check the results log: what was the call for FC(F)(F)Oc1ccc(NC(=S)NCc2ccccc2)cc1 ?
active

In the following, a different compound is considered.
Check the results log: what was the call for C/C(Cc1ccccc1)=N\NC(=O)CNC(=O)c1ccccc1Cl ?
inactive
